- protocol.summary: Solubility of crystal form Form T in different solutions at 37° C. (about 60 mg in 2 mL, 2 h and 24 h; HPLC, pH, XRPD)
- Format: physicochemical
- experimental.conditions: pH 9.0 solution, aqueous buffer, thermodynamic from solid; pH 9.0, 37° C., 2 h
recorded.metric: solubility at 2 h (µg/mL)

- molecule: "CCc1nc2c(N)ncc(-c3ccc(N4CCC(N5CCN(CC)CC5)CC4)c(OC)c3)c2nc1NC1CCOCC1 [Form T]"
  val: 2

----------
- protocol.summary: Solubility at 37° C. in buffer solutions with different pH (about 10 mg in 1 ml, 2 h and 24 h); filtrate concentration and pH, XRPD of remaining solid
- Assay type: physicochemical
- experimental.conditions: buffer solution pH 3.0, 37 °C, pH 3, aqueous buffer, thermodynamic from solid, medium pH 3.0, 2 h; read-out: Solubility at 37° C.
- Experimental: Approximately 10 mg of malate crystal form VII-A and free base Form A were weighed separately, and 1 ml of buffer solutions with different pH were added to make the solution supersaturated, and the mixtures were stirred at 37° C. for 2 h and 24 hours. The samples were filtered, and the filtrates were measured to determine the concentration and pH value, and the remaining solid was subjected to XRPD determination. The specific results were as follows: […]
recorded.metric: solubility at 2 h

- compound: "CCc1nc2c(N)ncc(-c3ccc(N4CCC(N5CCN(CC)CC5)CC4)c(OC)c3)c2nc1NC1CCOCC1 [Free base Form A]"
  recorded.metric: "solubility at 2 h"
  val: "> 10000 µg/mL"
